// reported relative integration efficiency (log2) per item
tested on: VchCAST RNA-guided transposition machinery (E. coli BL21(DE3) host, lacZ target); experiment: relative integration efficiency (T-LR orientation) vs wild-type transposon end (log2 (normalized fold change)); transposon end mutated: right end (5 bp flank + 75 bp right end); higher = more efficient transposition

# sequence-code, relative integration efficiency (log2)
rows = [
    ("ACATTTGTTGATACAACCATAAAATGATAATTACCACCCCTACATTGATAATTATCACACCCATTTAACTATAACGCTCTGATCATAGTCAGACCAACATTGCTACGACCCGTATTCGCACCGACAC", -0.0894),
    ("ACATTTGTTGATACAACCATAAAATGATAATTACACCCATAAATGTCGAATTATCACACCCATAAATTGATATTGCCTCTGATCATAGTCAGACCAACATTGCTACGACCCGTATTCGCACCGACAC", -2.54),
    ("ACATTTGTTGATACAACCATAAAATGATAATTAATCACCCATAAATTGATAATTATCAACAAACGCCCGGTCGCGGTACTCTGATCATAGTCAGACCAACATTGCTACGACCCGTATTCGCACCGAC", 1.09),
]

====

test system: VchCAST RNA-guided transposition machinery (E. coli BL21(DE3) host, lacZ target); test: relative integration efficiency (T-LR orientation) vs wild-type transposon end (log2 (normalized fold change)); transposon end mutated: right end (5 bp flank + 75 bp right end); higher = more efficient transposition
// reported relative integration efficiency (log2) per item
attribute-measured: relative integration efficiency (log2)

# sequence-code, recorded-measurement
records = [
    ("ACATTTGTTGATACAACCATAAGTTGATATTTTCACCCATAAATTGATATTGCTCACAACCATAAAATGATAATTACTCTGATCATAGTCAGACCAACATTGCTACGACCCGTATTCGCACCGACAC", -0.0881),
    ("ACATTTGTTGATACAACCCTAAAATGATAATTACACCCATAAATGGATCATTATCACACCCAATTTAACTATAACGCTCTGATCATAGTCAGACCAACATTGCTACGACCCGTATTCGCACCGACAC", -1.52),
    ("ACATTTGTCGATACAACCCTAAAATGATAATTACACCCATAAATTCATAATTATCACACCCAATTTAACTATAACGCTCTGATCATAGTCAGACCAACATTGCTACGACCCGTATTCGCACCGACAC", -2.19),
    ("ACATTTGTTGATACAACCATAAAATGATAATTACACCCATAAATTGATTTAAATCACACCCATAAATTGATATTGCCTCTGATCATAGTCAGACCAACATTGCTACGACCCGTATTCGCACCGACAC", -0.261),
    ("ACATTTCTTGATACAACCATAAAATGATAATTACACCCATAAATTCATAATTATCACACCCAATTTAACTATAACGCTCTGATCATAGTCAGACCAACATTGCTACGACCCGTATTCGCACCGACAC", -0.103),
    ("ACATTTGTTGATACAACCATATATTGATATCTCCAACCATAAAATGATAATTATCACACCCATAAATTGATAATTACTCTGATCATAGTCAGACCAACATTGCTACGACCCGTATTCGCACCGACAC", -0.0737),
    ("ACATTTGTTGATACAACCATAAAATGATAATTACACCCATAAATTGATAATTAAGACACCCATAAATTGATATTGCCTCTGATCATAGTCAGACCAACATTGCTACGACCCGTATTCGCACCGACAC", -0.137),
    ("ACATTTGTCGATACAACCATAAAACGATAATTACACCCATAAATTCATCATTATCACACCCAATTTAACTATAACGCTCTGATCATAGTCAGACCAACATTGCTACGACCCGTATTCGCACCGACAC", 1.48),
    ("ACATTTGCTGATACTACCATATAATGATAATAACACCCATAAAATGATAATTATCACACCCAATTTAACTATAACGCTCTGATCATAGTCAGACCAACATTGCTACGACCCGTATTCGCACCGACAC", -0.422),
    ("ACATTTGTTGATACAACCATAAAATGATAATTCACCCATCAATTGATAATTATCACACCCCAATTTAACTATAACGCTCTGATCATAGTCAGACCAACATTGCTACGACCCGTATTCGCACCGACAC", -0.128),
]
